Reference source for all entries: patent US5594024A

target: D2 receptors (Rattus norvegicus, UniProt P61169); construct: Preparation of rat striatal membranes for (3H)-spiperone; from tissue; host or cells: rat striatum (striatal membranes); assay: D2 antagonist binding ([3H]-spiperone), rat striatum; details: [3H]-spiperone, rat striatum; read-out: in vitro binding IC50, D2 -spip
Sequence (P61169 whole entry): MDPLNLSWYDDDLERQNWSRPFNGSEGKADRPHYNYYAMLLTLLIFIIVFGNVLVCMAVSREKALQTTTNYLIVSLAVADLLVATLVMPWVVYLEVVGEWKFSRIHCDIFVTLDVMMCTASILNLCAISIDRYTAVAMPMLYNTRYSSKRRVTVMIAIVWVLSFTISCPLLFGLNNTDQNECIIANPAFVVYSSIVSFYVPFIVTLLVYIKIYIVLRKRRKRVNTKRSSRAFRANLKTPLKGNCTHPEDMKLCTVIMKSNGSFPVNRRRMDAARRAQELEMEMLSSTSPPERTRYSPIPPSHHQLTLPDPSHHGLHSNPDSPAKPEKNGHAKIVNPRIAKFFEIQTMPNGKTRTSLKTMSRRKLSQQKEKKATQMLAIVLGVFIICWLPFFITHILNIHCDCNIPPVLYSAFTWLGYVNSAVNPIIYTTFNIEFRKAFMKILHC
MEASUREMENT_TYPE: pIC50
Remember, pIC50 is on a log scale: it is -log10 of the molar concentration.

In: Identify pIC50 associated with the compound CCCN1CCCC(c2ccc(OS(=O)(=O)C(F)(F)F)cc2)C1 (racemic) [Racemic-20]
Out: 4.15

In: Specify measured pIC50 for N#Cc1cccc([C@@H]2CCCN(CCc3ccccc3)C2)c1 [Compound S-39] .
Out: 6.20

In: Quickly give me recorded pIC50 for CN1CCC[C@@H](c2cccc(OS(=O)(=O)C(F)(F)F)c2)C1 [S-(+)-13]
Out: 4.15

In: Answer with reported pIC50 of CCCN1CCC[C@@H](c2cccc(C(=O)OC)c2)C1 [Compound S-25]
Out: 4.80

In: Output measured pIC50 for this item: C=CCN1CCC[C@@H](c2cccc(OS(=O)(=O)C(F)(F)F)c2)C1 [Compound S-17]
Out: 4.55

In: Give the value of pIC50 reported for the following: CCCN1CCC[C@@H](c2cccc(OC)c2)C1 [S-i]
Out: 4.68

In: Item N#Cc1cccc([C@@H]2CCCNC2)c1 [Compound S-31, S-3-(3-Cyanophenyl)piperidine] : provide pIC50
Out: 4.80

In: Provide one value: measured pIC50 of CCN1CCC[C@@H](c2cccc(OS(=O)(=O)C(F)(F)F)c2)C1 [S-(-)-14]
Out: 5.15

In: Provide pIC50 value for the following compound: CCCN1CCC[C@@H](c2cccc(C(N)=O)c2)C1 [S-(-)-29]
Out: 4.12

In: Specify reported pIC50 for the compound shown: CCCN1CCC[C@@H](c2cccc(OS(=O)(=O)C(F)(F)F)c2)C1 [S-(-)-15]
Out: 5.80

In: Could you please provide reported pIC50 for C=Cc1cccc([C@@H]2CCCN(CCC)C2)c1 [Compound S-41, S-3-(3-Vinylphenyl-N-n-propyl)piperidine] ? Thanks!
Out: 5.46
